- Assay Details: NMR method: depletion of electrophile signal on reaction with DCYA
- Test Conditions: based on depletion of electrophile signal at 30 min

# Molecule, NMR Classification
rows = [
    ("C=C(C)[C@@H]1CCC2=CC(=O)C[C@@H](C)[C@]2(C)C1 [Nootkatone]", "Non"),
    ("O=c1ccc2ccccc2o1 [Coumarin]", "Non"),
    ("C=CC(=O)OCC [Ethyl acrylate]", "Strong"),
    ("O=C1C=CC(=O)C=C1 [p-Benzoquinone]", "Strong"),
]

====

Entries and their measured Cys-DPRA binary classification: TP follow.
- System: thiol peptide
- Assay Details: Cys-DPRA (Direct Peptide Reactivity Assay), literature data
- Test Conditions: true positive
Counter-ions that a name gives are not always drawn.
Measurement Kind: Cys-DPRA binary classification: TP

# Compound, Measurement Kind, Experimental Result
rows = [
    ("CCC=CC=CC=O", "Cys-DPRA binary classification: TP", 1),
    ("Cn1sccc1=O", "Cys-DPRA binary classification: TP", 1),
    ("CC(=O)C(=O)CC(C)C", "Cys-DPRA binary classification: TP", 1),
    ("COc1cc(C=O)ccc1O", "Cys-DPRA binary classification: TP", 0),
    ("O=C(O)C(O)C(O)C(=O)O (stereo not drawn)", "Cys-DPRA binary classification: TP", 0),
    ("CCOC(=O)/C=C\\C(=O)OCC [Diethyl maleate]", "Cys-DPRA binary classification: TP", 1),
    ("O=c1c(-c2ccccc2)c1-c1ccccc1", "Cys-DPRA binary classification: TP", 1),
    ("O=C(OCc1ccccc1)c1ccccc1 [Benzyl benzoate]", "Cys-DPRA binary classification: TP", 0),
    ("O=[N+]([O-])c1ccc(Cl)c([N+](=O)[O-])c1", "Cys-DPRA binary classification: TP", 1),
    ("CC(C=O)Cc1ccc(C(C)(C)C)cc1 (stereo not drawn)", "Cys-DPRA binary classification: TP", 0),
    ("CCCCBr", "Cys-DPRA binary classification: TP", 0),
    ("CC/C=C\\CCCCC=O [cis-6-Nonenal]", "Cys-DPRA binary classification: TP", 1),
]
